// IC50 collected for UniProt P08684
Sequence (P08684 whole entry): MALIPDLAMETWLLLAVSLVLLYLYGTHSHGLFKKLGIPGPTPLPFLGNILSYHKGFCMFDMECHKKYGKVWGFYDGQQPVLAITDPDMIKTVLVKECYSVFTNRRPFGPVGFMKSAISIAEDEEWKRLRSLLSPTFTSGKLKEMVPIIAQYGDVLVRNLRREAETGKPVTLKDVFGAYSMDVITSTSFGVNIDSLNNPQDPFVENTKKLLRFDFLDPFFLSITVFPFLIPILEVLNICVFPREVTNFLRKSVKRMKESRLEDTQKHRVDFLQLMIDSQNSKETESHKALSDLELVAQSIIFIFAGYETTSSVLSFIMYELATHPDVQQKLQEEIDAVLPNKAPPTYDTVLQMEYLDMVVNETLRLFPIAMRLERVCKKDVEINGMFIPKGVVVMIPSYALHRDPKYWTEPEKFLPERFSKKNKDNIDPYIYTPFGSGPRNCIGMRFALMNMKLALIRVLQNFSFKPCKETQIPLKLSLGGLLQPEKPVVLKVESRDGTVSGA
Respond with the bare value in µM.

molecule=O=C(/C=C\c1ccc(O)cc1)OC[C@H]1O[C@@H](Oc2c(-c3ccc(O)cc3)oc3cc(O)cc(O)c3c2=O)[C@H](O)[C@@H](O)[C@@H]1O experimental_system="UniProt P08684" meas_value=0.7

Shift focus to the following entry.
Lab note: need IC50 with UniProt P08684 for entry O=C(/C=C/c1ccc(O)cc1)OC[C@H]1O[C@@H](Oc2c(-c3ccc(O)cc3)oc3cc(O)cc(O)c3c2=O)[C@H](O)[C@@H](O)[C@@H]1O [TILIROSIDE] , please look it up.
0.7
